# Assayed system: WEE1 (Homo sapiens, UniProt P30291+Q96SW2)
# Construct: C-terminal ePL-tagged (DiscoverX, Fremont, CA) full-length WEE1 expression construct; expressed in transfected cells; host or cells: LentiX-HEK293T (Invitrogen), lentiviral transduction; co-expressing GSPT1-GN (G576N, lacking the first 158 amino acids)
# Assay: WEE1-ePL degradation assay (LentiX-WEE1-ePL-GSPT1-ND cells, InCELL Hunter luminescence, 4 h)
# Assay type: cell-based
# Experimental setup: 293T-LentiX WEE1-ePL cells, lower limit of the fit (0 = luciferase inhibitor, Ymax = DMSO control)
Experimental readout: 293T-LentiX WEE1-ePL Degradation 4 hr (Ymin)

Consider the following illustrative entries.
>>> assay_result("O=C1CC[C@H](N2Cc3cc(O[C@H]4CCN(Cc5ccc6nc([C@@H]7CCOC7)ccc6c5)C4)ccc3C2=O)C(=O)N1")
30
>>> assay_result("O=C1CCC(N2Cc3cc(O[C@H]4CCN(Cc5ccc6nc(C78CCOCC7C8)ccc6c5)C4)ccc3C2=O)C(=O)N1 (some centres unmarked)")
33.33

I = COc1ccc2cc(CN3CC[C@H](Oc4ccc5c(c4)CN(C4CCC(=O)NC4=O)C5=O)C3)ccc2n1 (some centres unmarked)
II = O=C1CCC(N2Cc3cc(O[C@H]4CCN(Cc5cccc6ncncc56)C4)ccc3C2=O)C(=O)N1 (some centres unmarked)
III = Cc1ccc2cc(CN3C[C@@H](Oc4ccc5c(c4)CN(C4CCC(=O)NC4=O)C5=O)C[C@H]3C)ccc2n1 (some centres unmarked)
With regard to 293T-LentiX WEE1-ePL Degradation 4 hr (Ymin), arrange the entries in ascending order, please. Give your ranking as a list of the labels in the requested order. I, II, III
